# tgt: central benzodiazepine receptors
# experiment.summary: inhibition of the binding of tritiated diazepam at the specific benzodiazepine receptors in the cerebral cortex
# condition: 50 percent inhibition of the specific binding of the tritiated diazepam
Assign IC50 to each entry below.
Write down the numeric answer in nM and omit the unit.

Challenge: Data request, read-out IC50, for O=C1c2c(Cl)cccc2-n2cnc(Cl)c2C2C=CCN12 (racemic) [(a) H Cl Cl --CH=CH--CH2 -- O (R/S)]
Response given: 3.9

Challenge: // repeat for "CN1Cc2c(Br)ncn2-c2ccccc2C1=O" and report
Response given: 34

Challenge: // repeat for "CN1Cc2cncn2-c2cccc(Cl)c2C1=O" and report
Response given: 110

Challenge: // repeat for "CN1Cc2c(Cl)ncn2-c2ccc(F)cc2C1=O" and report
Response given: 28
